tested on: K562; assay: cell viability relative to vehicle control; higher = less cytotoxic; conditions: 10 µM; SRSF2 genotype: SRSF2 wt/wt;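 also: after 48 h exposure read by CellTiter-Glo luminescence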
Observable: cell viability (%)
Write the number in % without appending the unit.

Look over these answered cases.
[
  {
    "Compound": "OCc1ccc(O[C@@H]2O[C@H](CO)[C@@H](O)[C@H](O)[C@H]2O)cc1",
    "Reading unit": "%",
    "cell viability": 99.8
  },
  {
    "Compound": "O=C1NC(=O)C(c2ccccc2[N+](=O)[O-])=C1Nc1ccc(O)c(Cl)c1",
    "Reading unit": "%",
    "cell viability": 104
  },
  {
    "Compound": "CC(C(=O)O)C(=O)O [Methylmalonate]",
    "Reading unit": "%",
    "cell viability": 100
  }
]

Please report the recorded cell viability for CC(C)=CCC[C@](C)(O[C@@H]1O[C@H](CO[C@@H]2O[C@@H](CO)[C@H](O)[C@H]2O)[C@@H](O)[C@H](O)[C@H]1O)[C@H]1CC[C@]2(C)[C@@H]1[C@H](O)C[C@@H]1[C@@]3(C)CC[C@H](O[C@@H]4O[C@H](CO)[C@@H](O)[C@H](O)[C@H]4O[C@@H]4O[C@H](CO)[C@@H](O)[C@H](O)[C@H]4O)C(C)(C)[C@@H]3CC[C@]12C [Ginsenoside Rc] . 100

For the compound shown here, CC(S)C(=O)NCC(=O)O (stereo not given) , give the reported cell viability. 104

What value of cell viability has been reported for the following compound? C[C@H]1C[C@H]2[C@@H]3C[C@H](F)C4=CC(=O)C=C[C@]4(C)[C@@]3(F)[C@@H](O)C[C@]2(C)[C@@]1(O)C(=O)CO 105

Which cell viability is reported for this compound? CCCCCCCCCCCCCCCc1cccc(O)c1C(=O)O 84.8

Which measured cell viability value corresponds to O=C(/C=C/c1ccc(O)c2c1[C@H](C(=O)O[C@H](Cc1ccc(O)c(O)c1)C(=O)O)[C@@H](c1ccc(O)c(O)c1)O2)O[C@H](Cc1ccc(O)c(O)c1)C(=O)O ? 101

# query: cell viability of entry COc1cc2c(cc1Cc1cccc(Cl)c1F)c(=O)c(C(=O)O)cn2[C@H](CO)C(C)C 45.1

Which value of cell viability has been reported for CC(=O)Oc1c(C)c(C)c2c(c1C)CCC(C)(CCC[C@H](C)CCC[C@H](C)CCCC(C)C)O2 (stereo not given in full) [Vitamin E Acetate] in the records? 106

Quick one: cell viability for CC(C)c1cnn2c(NCc3ccccc3-n3cccn3)nc(OC3CCCNC3)nc12 (stereo not given) ? 9.75

Value lookup for cell viability; key = O=C1NC(=O)C(c2cnc3ccccn23)=C1c1cn2c3c(cc(F)cc13)CN(C(=O)N1CCCCC1)CC2 71.5
